B1: Caulobacter ParB omega fusion; a variant is named by its letters at X, in order, B8GW30 (parent)
chain: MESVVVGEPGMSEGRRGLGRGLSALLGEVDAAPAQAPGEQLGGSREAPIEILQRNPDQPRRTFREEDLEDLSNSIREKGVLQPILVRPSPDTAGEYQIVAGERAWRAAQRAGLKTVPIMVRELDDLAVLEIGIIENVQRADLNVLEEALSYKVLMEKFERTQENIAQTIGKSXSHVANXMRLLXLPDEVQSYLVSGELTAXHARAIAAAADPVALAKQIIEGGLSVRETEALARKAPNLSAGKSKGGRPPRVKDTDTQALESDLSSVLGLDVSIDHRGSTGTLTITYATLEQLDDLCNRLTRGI

# Variants of: B1
# Test summary: one-hybrid fitness for binding parS DNA (scaled: cognate 1, non-cognate 0); higher = stronger binding
# Condition parameters: with parS DNA site
Over roughly 81,000 sequences, “one-hybrid fitness for binding parS DNA” has its median near -0.17; the highest 2% begin near 0.51. The sample as a whole holds a higher share of the highest values than the screen did.
Measurement label: one-hybrid fitness for binding parS DNA

RPGM	≤ 0.2
RWLG	0.685
PPTG	≤ 0.2
KTAM	≤ 0.2
MYER	≤ 0.2

Data request, read-out one-hybrid fitness for binding parS DNA, for `RIQN`
0.449

Data request, read-out one-hybrid fitness for binding parS DNA, for `RWRG`
0.881

Data request, read-out one-hybrid fitness for binding parS DNA, for `LPNG`
≤ 0.2

Data request, read-out one-hybrid fitness for binding parS DNA, for `QNHC`
≤ 0.2

Data request, read-out one-hybrid fitness for binding parS DNA, for `RQNP`
≤ 0.2

Data origin: a collection of fitness landscapes (doi:10.1016/j.celrep.2020.107928)
